# study_target: T1, human tissue factor (human TF, Lake Pharma) (human, UniProt P13726 33-251, limits assumed)
# T1 construct: bought recombinant antigen; also called CD142
# T1 sequence (P13726 33-251 limits assumed): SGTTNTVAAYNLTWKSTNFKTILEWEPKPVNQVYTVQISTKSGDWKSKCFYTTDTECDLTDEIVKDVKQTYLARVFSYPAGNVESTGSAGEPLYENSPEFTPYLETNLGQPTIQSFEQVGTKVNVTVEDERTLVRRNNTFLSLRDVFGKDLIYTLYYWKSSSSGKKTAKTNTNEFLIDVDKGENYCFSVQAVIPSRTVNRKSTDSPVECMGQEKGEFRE
# assay_explanation: Biacore SPR, single-point off-rate (100 nM antigen), antibody captured on anti-Fc
test_readout: koff (s⁻¹)
Numeric answer only, unit s⁻¹ assumed.

The following binders have reported results that may help.
[
  {
    "binder": "2842-B01 HC1/LC2 (antibody, V domains shown, humanized rabbit antibody, variable regions fused to human IGHG1 and IGKC) VH: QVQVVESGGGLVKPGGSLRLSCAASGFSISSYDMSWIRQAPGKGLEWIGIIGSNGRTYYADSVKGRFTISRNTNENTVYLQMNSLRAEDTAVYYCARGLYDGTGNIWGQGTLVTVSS VL: ELVMTQSPPTLSLSPGERVTLSCRASQSVYGNNWLSWYQQKPGQAPRLLIYGASKLATSIPARFSGSGSGTQFTLTISSLQPEDFAVYYCQGTYYSGDWYFAFGQGTKVEIK",
    "unit_annotation": "s⁻¹",
    "koff": 0.000691
  },
  {
    "binder": "SRP2901-F01 (antibody, V domains shown, humanized rabbit antibody, variable regions fused to human IGHG1 and IGKC; also called 2842-B01 HC1/LC3) VH: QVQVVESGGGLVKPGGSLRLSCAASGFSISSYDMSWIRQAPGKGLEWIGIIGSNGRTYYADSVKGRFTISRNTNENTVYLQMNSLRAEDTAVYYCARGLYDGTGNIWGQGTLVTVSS VL: DIQMTQSPSSLSASVGDRVTITCQASQSVYGNNWLSWYQQKPGKAPKLLIYGASKLASGVPSRFSGSGSGTDFTLTISSLQPEDFATYYCQGTYYSGDWYFAFGGGTKVEIK",
    "unit_annotation": "s⁻¹",
    "koff": 0.00054
  }
]

Qu. Quick one: koff for SRP2901-E03 (antibody, V domains shown, humanized rabbit antibody, variable regions fused to human IGHG1 and IGKC; also called 2842-B01 HC3/LC2) VH: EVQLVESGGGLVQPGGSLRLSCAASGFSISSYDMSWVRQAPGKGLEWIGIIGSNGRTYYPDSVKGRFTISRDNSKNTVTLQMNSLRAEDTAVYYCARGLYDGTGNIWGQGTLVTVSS VL: ELVMTQSPPTLSLSPGERVTLSCRASQSVYGNNWLSWYQQKPGQAPRLLIYGASKLATSIPARFSGSGSGTQFTLTISSLQPEDFAVYYCQGTYYSGDWYFAFGQGTKVEIK ?
Ans. 0.000361
